In this section, each of the molecules is paired with its reported % Inhibition.
# Tested on: Staphylococcus epidermitis
# experiment description: Bacterial growth inhibition screen in LB media (absorbance 595 nm), percent inhibition
# stated conditions: S. epidermitis; concentration screened 10 uM
# include the unit after the value

{"molecule": "CN(C)c1cccc(C(=O)OCCCCCCCCn2ccc3cc([N+](=O)[O-])ccc32)c1 [Compound 840]", "% Inhibition": "98.77%"}
{"molecule": "O=[N+]([O-])c1ccc2c(ccn2CCCCCCO)c1 [Compound 862, 6-[N-(5-nitroindolyl)]hexan-1-ol]", "% Inhibition": "48.29%"}
{"molecule": "CC(C)c1ccc2[nH]c(CCC[n+]3ccccc3)cc2c1 [Compound 318]", "% Inhibition": "2.99%"}

stdin: Using the record for c1ccc(C(c2ccccc2)(c2ccccc2)c2ccc3[nH]c(CCCCC[n+]4ccccc4)cc3c2)cc1 [Compound 338] , report its % Inhibition.
stdout: 1.67%

stdin: Using the record for c1ccc(-c2ccc3[nH]c(CCCCCCCC[n+]4cccc5ccccc54)cc3c2)cc1 [Compound 437] , report its % Inhibition.
stdout: 11.84%

stdin: Using the record for CC(=O)c1ccc2[nH]c(CCCCCCCOC(=O)c3cccnc3)cc2c1 [Compound 673] , report its % Inhibition.
stdout: 1.50%

stdin: Using the record for CCCCc1ccc2[nH]c(CCCC[n+]3ccc4ccccc4c3)cc2c1 [Compound 529] , report its % Inhibition.
stdout: 10.15%

stdin: Using the record for CN(C)c1ccc(C(=O)OCCCCCCCCCn2ccc3cc([N+](=O)[O-])ccc32)cc1 [Compound 847] , report its % Inhibition.
stdout: 19.84%

stdin: Using the record for Fc1ccc2[nH]c(CCCC[n+]3cccc4ccccc43)cc2c1 [Compound 451] , report its % Inhibition.
stdout: 5.57%
